Assay: Toxicity liver stage against HepG2, at 10uM
Type: cell-based
Parameters: test concentration 10 uM, cell line HepG2-A16-CD81EGFP
Conditions: human, HepG2-A16-CD81EGFP cells; read-out: INHIBITION
Please respond with reported cytotoxicity at 10 µM for every item in the list.
Write the answer as a number in %, unit excluded.

QUERY: Give the measured cytotoxicity at 10 µM of Cc1ccnn1CCNC(=O)c1cnc(N(C)C)nc1 .
RESULT: 2.24

QUERY: Tell me the measured cytotoxicity at 10 µM of Cc1cnn(C2CCCN(C(=O)c3ccnc(-n4cncn4)c3)C2)c1 (stereo unspecified) , please.
RESULT: -0.565

QUERY: Could you share which cytotoxicity at 10 µM value was measured for Cc1ncc(CN2CCOC(c3ccc(-c4ccccc4F)cn3)C2)s1 (stereo unspecified) ?
RESULT: -35.7

QUERY: Consider the molecule CN(C(=O)C1CCOCC1)[C@@H]1CCC[C@@H](N2CCCC2)[C@@H]1O and give its measured cytotoxicity at 10 µM.
RESULT: -6.22

QUERY: Dear colleague, I am looking for the recorded cytotoxicity at 10 µM of the following molecule: CN1CC(=O)N(c2cccc(F)c2)CC12CCN(Cc1cccnc1)C2 (stereo unspecified)
RESULT: 9.69

QUERY: Endpoint output: cytotoxicity at 10 µM of CCN(CC1CCCN(CCc2cccc(OC)c2)C1)C(=O)CCSC (stereo unspecified) . Value?
RESULT: 10.5

QUERY: Which cytotoxicity at 10 µM value is on record for CCS(=O)(=O)N1CCOC2(CCCN(c3ccccn3)C2)C1 (stereo unspecified) ?
RESULT: 3.16

QUERY: Reported cytotoxicity at 10 µM for CNC(=O)[C@@H]1C[C@@H](N)CN1C(=O)CCSCc1ccc(F)cc1 : what is it?
RESULT: -17.6

QUERY: Would you mind telling me what cytotoxicity at 10 µM value was observed for c1ncn(CC2CCCCN2Cc2csc(-c3ccsc3)n2)n1 (stereo unspecified) ?
RESULT: -2.48

QUERY: Could you share which cytotoxicity at 10 µM value was measured for COCCn1ccc2ccc(C(=O)O)cc21 ?
RESULT: -9.13

QUERY: Fill in: cytotoxicity at 10 µM of CC(C)CNC(=O)N1C[C@@H]2CCCN[C@@H]2C1 is ___
RESULT: 5

----------
Assign cytotoxicity at 10 µM to each entry below.
Assay: Toxicity liver stage against HepG2, at 10uM
Assay type: cell-based
Set-up: test concentration 10 uM, cell line HepG2-A16-CD81EGFP
Conditions: human, HepG2-A16-CD81EGFP cells; read-out: INHIBITION
Write down the value, and be sure its unit follows.

QUERY: cytotoxicity at 10 µM lookup needed for Cc1ccc(C(=O)N2CCC(c3n[nH]c(C4CC4)n3)CC2)cc1F , thanks.
RESULT: -5.5%

QUERY: Form field: reported cytotoxicity at 10 µM of CCc1c(C)nn(CC(=O)NC(C(=O)O)c2c(C)n[nH]c2C)c1C (stereo unspecified)
RESULT: 5.79%

QUERY: Bench note: what cytotoxicity at 10 µM did O=C(Nc1ccccc1)[C@H]1O[C@H](CCN2CCCCC2)CC[C@@H]1O show?
RESULT: -1.36%

QUERY: What does the data say about its cytotoxicity at 10 µM? Entry: COc1ccc(CN2C[C@@H](OCc3csc(C)n3)[C@H]3COC[C@H]32)cc1
RESULT: -17.3%

QUERY: Consider the compound shown here: Cc1ccc(CC(NC(=O)Cn2cnnn2)c2ccccn2)cc1 (stereo unspecified) What is its recorded cytotoxicity at 10 µM?
RESULT: 1.72%

QUERY: Requested read-out: cytotoxicity at 10 µM. Entry: CC(C)N(CC(N)=O)Cc1csc(-c2ncccn2)n1
RESULT: 5.85%

QUERY: What value of cytotoxicity at 10 µM has been reported for the following compound? CCN(CC)C1(Cc2cc(COC)on2)COC1
RESULT: -2.45%

QUERY: Endpoint output: cytotoxicity at 10 µM of Cc1ncoc1C(=O)N1C[C@@H]2COC[C@]2(c2nnc(C3CC3)o2)C1 . Value?
RESULT: -2.08%

QUERY: // returns reported cytotoxicity at 10 µM for input Cc1ccc(S(=O)(=O)NCCc2nnc[nH]2)c2cccnc12
RESULT: -5.93%

QUERY: Which cytotoxicity at 10 µM is reported for this compound? C=C(C)CN1C(=O)CC(Cc2ccc(F)cc2)C1=O (stereo unspecified)
RESULT: 1.62%

QUERY: May I ask what cytotoxicity at 10 µM has been recorded for CCO[C@@H]1CC[C@H]2[C@H]1OCCN2S(=O)(=O)c1cn(C)cn1 ?
RESULT: 5.59%
